experiment: Plasma pharmacokinetics of ARRY-520; type: in vivo, human; conditions: human, plasma, intravenous, 3.6 mg/m^2, Cmax, Schedule 2, Cycle 1 Day 5, 3.6 mg/m^2 (N=1); geometric mean
endpoint-label: Cmax

CON(C)C(=O)N1N=C(c2cc(F)ccc2F)S[C@@]1(CCCN)c1ccccc1 :: 0.199 µg/mL

* * *

test: Plasma pharmacokinetics of ARRY-520; assay type: in vivo, human; details: human, plasma, intravenous, 0.8 mg/m^2, CL, Schedule 2, Cycle 1 Day 5, 0.8 mg/m^2 (N=3); geometric mean (geometric %CV)
endpoint-label: clearance (mL/min)

CON(C)C(=O)N1N=C(c2cc(F)ccc2F)S[C@@]1(CCCN)c1ccccc1 [ARRY-520] :: 33.8

* * *

assay: Plasma pharmacokinetics of ARRY-520; assay type: in vivo, human; details: human, plasma, intravenous, 1.8 mg/m^2, Vss, Schedule 2, Cycle 1 Day 1, 1.8 mg/m^2 (N=2); mean
endpoint-label: Vd (L)

CON(C)C(=O)N1N=C(c2cc(F)ccc2F)S[C@@]1(CCCN)c1ccccc1 [ARRY-520] :: 306

* * *

experiment: Plasma pharmacokinetics of ARRY-520; assay type: in vivo, human; conditions: human, plasma, intravenous, 0.8 mg/m^2, MRT, Schedule 2, Cycle 1 Day 5, 0.8 mg/m^2 (N=3); median (min-max)
endpoint-label: MRT (h)

CON(C)C(=O)N1N=C(c2cc(F)ccc2F)S[C@@]1(CCCN)c1ccccc1 [ARRY-520] :: 130

* * *

test: Plasma pharmacokinetics of ARRY-520; format: in vivo, human; conditions: human, plasma, intravenous, MRT, Schedule 1, Cycle 1 Day 1, Schedule Total (N=10); median (min-max)
endpoint-label: MRT

CON(C)C(=O)N1N=C(c2cc(F)ccc2F)S[C@@]1(CCCN)c1ccccc1 :: 127 h

* * *

assay: Plasma pharmacokinetics of ARRY-520; assay type: in vivo, human; details: human, plasma, intravenous, 3.6 mg/m^2, Vss, Schedule 2, Cycle 1 Day 1, 3.6 mg/m^2 (N=1); mean
endpoint-label: Vd (L)

CON(C)C(=O)N1N=C(c2cc(F)ccc2F)S[C@@]1(CCCN)c1ccccc1 :: 278

* * *

assay: Plasma pharmacokinetics of ARRY-520; format: in vivo, human; settings: human, plasma, intravenous, 0.8 mg/m^2, Cmax, Schedule 2, Cycle 1 Day 5, 0.8 mg/m^2 (N=3); geometric mean (geometric %CV)
endpoint-label: Cmax (ng/mL)

CON(C)C(=O)N1N=C(c2cc(F)ccc2F)S[C@@]1(CCCN)c1ccccc1 [ARRY-520] :: 25.3

* * *

assay: Plasma pharmacokinetics of ARRY-520; format: in vivo, human; settings: human, plasma, intravenous, 3.6 mg/m^2, AUC0–24, Schedule 2, Cycle 1 Day 5, 3.6 mg/m^2 (N=1); geometric mean
endpoint-label: AUC(0-t) (ng·h/mL)

CON(C)C(=O)N1N=C(c2cc(F)ccc2F)S[C@@]1(CCCN)c1ccccc1 :: 733

* * *

experiment: Plasma pharmacokinetics of ARRY-520; assay type: in vivo, human; details: human, plasma, intravenous, median terminal t1/2, plasma PK, summary
endpoint-label: half-life

CON(C)C(=O)N1N=C(c2cc(F)ccc2F)S[C@@]1(CCCN)c1ccccc1 :: > 90 h

* * *

assay: Plasma pharmacokinetics of ARRY-520; type: in vivo, human; conditions: human, plasma, intravenous, 3.75 mg/m^2, Cmax, Schedule 1, Cycle 1 Day 1, 3.75 mg/m^2 (N=1); geometric mean
endpoint-label: Cmax (ng/mL)

CON(C)C(=O)N1N=C(c2cc(F)ccc2F)S[C@@]1(CCCN)c1ccccc1 :: 31.1

* * *

test: Plasma pharmacokinetics of ARRY-520; type: in vivo, human; conditions: human, plasma, intravenous, t1/2, Schedule 1, Cycle 1 Day 1, Schedule Total (N=10); median (min-max)
endpoint-label: half-life (days)

CON(C)C(=O)N1N=C(c2cc(F)ccc2F)S[C@@]1(CCCN)c1ccccc1 :: 4.11

* * *

assay: Plasma pharmacokinetics of ARRY-520; format: in vivo, human; conditions: human, plasma, intravenous, 5.6 mg/m^2, Tmax, Schedule 1, Cycle 1 Day 1, 5.6 mg/m^2 (N=2); median (min-max)
endpoint-label: Tmax (min)

CON(C)C(=O)N1N=C(c2cc(F)ccc2F)S[C@@]1(CCCN)c1ccccc1 [ARRY-520] :: 57.5

* * *

experiment: Plasma pharmacokinetics of ARRY-520; assay type: in vivo, human; details: human, plasma, intravenous, 0.8 mg/m^2, Vss, Schedule 2, Cycle 1 Day 5, 0.8 mg/m^2 (N=3); mean (%CV)
endpoint-label: Vd (L)

CON(C)C(=O)N1N=C(c2cc(F)ccc2F)S[C@@]1(CCCN)c1ccccc1 [ARRY-520] :: 193

* * *

experiment: Plasma pharmacokinetics of ARRY-520; format: in vivo, human; conditions: human, plasma, intravenous, CL, Schedule 2, Cycle 1 Day 5, Schedule Total (N=18); geometric mean (geometric %CV)
endpoint-label: clearance (mL/min)

CON(C)C(=O)N1N=C(c2cc(F)ccc2F)S[C@@]1(CCCN)c1ccccc1 :: 19.8

* * *

assay: Plasma pharmacokinetics of ARRY-520; format: in vivo, human; conditions: human, plasma, intravenous, 1.2 mg/m^2, Cmax, Schedule 2, Cycle 1 Day 5, 1.2 mg/m^2 (N=6); geometric mean (geometric %CV)
endpoint-label: Cmax (ng/mL)

CON(C)C(=O)N1N=C(c2cc(F)ccc2F)S[C@@]1(CCCN)c1ccccc1 [ARRY-520] :: 24.3

* * *

test: Plasma pharmacokinetics of ARRY-520; assay type: in vivo, human; settings: human, plasma, intravenous, 1.5 mg/m^2, MRT, Schedule 2, Cycle 1 Day 5, 1.5 mg/m^2 (N=6); median (min-max)
endpoint-label: MRT

CON(C)C(=O)N1N=C(c2cc(F)ccc2F)S[C@@]1(CCCN)c1ccccc1 :: 119 h

* * *

experiment: Plasma pharmacokinetics of ARRY-520; format: in vivo, human; conditions: human, plasma, intravenous, 3.6 mg/m^2, MRT, Schedule 2, Cycle 1 Day 5, 3.6 mg/m^2 (N=1); median (min-max)
endpoint-label: MRT (h)

CON(C)C(=O)N1N=C(c2cc(F)ccc2F)S[C@@]1(CCCN)c1ccccc1 [ARRY-520] :: 152

* * *

assay: Plasma pharmacokinetics of ARRY-520; type: in vivo, human; settings: human, plasma, intravenous, 2.5 mg/m^2, Cmax, Schedule 1, Cycle 1 Day 1, 2.5 mg/m^2 (N=3); geometric mean (geometric %CV)
endpoint-label: Cmax

CON(C)C(=O)N1N=C(c2cc(F)ccc2F)S[C@@]1(CCCN)c1ccccc1 :: 132 ng/mL

* * *

assay: Plasma pharmacokinetics of ARRY-520; assay type: in vivo, human; conditions: human, plasma, intravenous, Tmax, Schedule 2, Cycle 1 Day 1, Schedule Total (N=18); median (min-max)
endpoint-label: Tmax (h)

CON(C)C(=O)N1N=C(c2cc(F)ccc2F)S[C@@]1(CCCN)c1ccccc1 [ARRY-520] :: 1

* * *

assay: Plasma pharmacokinetics of ARRY-520; type: in vivo, human; conditions: human, plasma, intravenous, 2.5 mg/m^2, Tmax, Schedule 1, Cycle 1 Day 1, 2.5 mg/m^2 (N=3); median (min-max)
endpoint-label: Tmax

CON(C)C(=O)N1N=C(c2cc(F)ccc2F)S[C@@]1(CCCN)c1ccccc1 :: 2 h

* * *

test: Plasma pharmacokinetics of ARRY-520; assay type: in vivo, human; conditions: human, plasma, intravenous, 5.6 mg/m^2, t1/2, Schedule 1, Cycle 1 Day 1, 5.6 mg/m^2 (N=2); median (min-max)
endpoint-label: half-life (h)

CON(C)C(=O)N1N=C(c2cc(F)ccc2F)S[C@@]1(CCCN)c1ccccc1 :: 92.5

* * *

test: Plasma pharmacokinetics of ARRY-520; format: in vivo, human; details: human, plasma, intravenous, 1.5 mg/m^2, Vss, Schedule 2, Cycle 1 Day 5, 1.5 mg/m^2 (N=6); mean (%CV)
endpoint-label: Vd (L)

CON(C)C(=O)N1N=C(c2cc(F)ccc2F)S[C@@]1(CCCN)c1ccccc1 :: 169

* * *

assay: Plasma pharmacokinetics of ARRY-520; format: in vivo, human; conditions: human, plasma, intravenous, 4.5 mg/m^2, Cmax, Schedule 1, Cycle 1 Day 1, 4.5 mg/m^2 (N=4); geometric mean (geometric %CV)
endpoint-label: Cmax (µg/mL)

CON(C)C(=O)N1N=C(c2cc(F)ccc2F)S[C@@]1(CCCN)c1ccccc1 :: 0.0534

* * *

assay: Plasma pharmacokinetics of ARRY-520; format: in vivo, human; settings: human, plasma, intravenous, 2.5 mg/m^2, t1/2, Schedule 1, Cycle 1 Day 1, 2.5 mg/m^2 (N=3); median (min-max)
endpoint-label: half-life (h)

CON(C)C(=O)N1N=C(c2cc(F)ccc2F)S[C@@]1(CCCN)c1ccccc1 [ARRY-520] :: 97.2

* * *

assay: Plasma pharmacokinetics of ARRY-520; assay type: in vivo, human; conditions: human, plasma, intravenous, 1.2 mg/m^2, t1/2, Schedule 2, Cycle 1 Day 1, 1.2 mg/m^2 (N=6); median (min-max)
endpoint-label: half-life (h)

CON(C)C(=O)N1N=C(c2cc(F)ccc2F)S[C@@]1(CCCN)c1ccccc1 :: 25.6
